Assay: Compound stability test in mouse blood
Type: in vitro ADME
Settings: mouse blood, 37° C., 1 μM, 30 min

>  <molecule>
CCC(C)n1ncn(-c2ccc(N3CCN(c4ccc(OCC5COC(Cn6c[n+](COC(C)=O)cn6)(c6ccc(Cl)cc6Cl)O5)cc4)CC3)cc2)c1=O.[Cl-] (stereo not drawn) [Compound 3]

>  <Remaining Percentages (%)>
67.1

$$$$
>  <molecule>
CCC(C)n1ncn(-c2ccc(N3CCN(c4ccc(OCC5COC(Cn6c[n+](COC(=O)C(C)C)cn6)(c6ccc(Cl)cc6Cl)O5)cc4)CC3)cc2)c1=O.[Cl-] (stereo not drawn) [Compound 4]

>  <Remaining Percentages (%)>
4.04

$$$$
>  <molecule>
CCC(C)n1ncn(-c2ccc(N3CCN(c4ccc(OCC5COC(Cn6c[n+](C)cn6)(c6ccc(Cl)cc6Cl)O5)cc4)CC3)cc2)c1=O.[Cl-] (stereo not drawn) [Compound 1]

>  <Remaining Percentages (%)>
0.00

$$$$
>  <molecule>
CCC(C)n1ncn(-c2ccc(N3CCN(c4ccc(OCC5COC(Cn6c[n+](CC)cn6)(c6ccc(Cl)cc6Cl)O5)cc4)CC3)cc2)c1=O.[Cl-] (stereo not drawn) [Compound 2]

>  <Remaining Percentages (%)>
16.2

$$$$
>  <molecule>
CCC(C)n1ncn(-c2ccc(N3CCN(c4ccc(OCC5COC(Cn6c[n+](COC(=O)C(C)(C)C)cn6)(c6ccc(Cl)cc6Cl)O5)cc4)CC3)cc2)c1=O.[Cl-] (stereo not drawn) [Compound 5]

>  <Remaining Percentages (%)>
1.48

$$$$
>  <molecule>
CC(C)[N+](C)(CCOC(=O)C1c2ccccc2Oc2ccccc21)C(C)C [Propantheline, propantheline, reference compound]

>  <Remaining Percentages (%)>
62.4

$$$$
>  <molecule>
CCC(C)n1ncn(-c2ccc(N3CCN(c4ccc(OCC5COC(Cn6c[n+](COC(=O)OC(C)C)cn6)(c6ccc(Cl)cc6Cl)O5)cc4)CC3)cc2)c1=O.[Cl-] (stereo not drawn) [Compound 8]

>  <Remaining Percentages (%)>
40.2

$$$$
>  <molecule>
CCOC(=O)OC[n+]1cnn(CC2(c3ccc(Cl)cc3Cl)OCC(COc3ccc(N4CCN(c5ccc(-n6cnn(C(C)CC)c6=O)cc5)CC4)cc3)O2)c1.[Cl-] (stereo not drawn) [Compound 6]

>  <Remaining Percentages (%)>
12.6

$$$$

---

Reported values of Remaining Percentages (%) for individual entries
Assay: Compound stability test in human blood
Format: in vitro ADME
Settings: human blood, 37° C., 1 μM, 180 min
Experimental: One (1) mM test compound working solution was prepared in DMSO. One (1) mM propantheline working solution was prepared in acetonitrile, wherein propantheline was used as positive control in this assay. […] Samples were analyzed by LC-MS/MS. […] All calculations were carried out using Microsoft Excel. Peak area ratios were determined from extracted ion chromatograms, and percent compounds remaining at each time point were calculated by the following equation: […]
parameter: Remaining Percentages (%)

>  <molecule>
CCC(C)n1ncn(-c2ccc(N3CCN(c4ccc(OCC5COC(Cn6c[n+](CC)cn6)(c6ccc(Cl)cc6Cl)O5)cc4)CC3)cc2)c1=O.[Cl-] (stereo not drawn) [Compound 2]

>  <number>
0.30

$$$$
>  <molecule>
CCC(C)n1ncn(-c2ccc(N3CCN(c4ccc(OCC5COC(Cn6c[n+](COC(C)=O)cn6)(c6ccc(Cl)cc6Cl)O5)cc4)CC3)cc2)c1=O.[Cl-] (stereo not drawn) [Compound 3]

>  <number>
34.3

$$$$
>  <molecule>
CC(C)[N+](C)(CCOC(=O)C1c2ccccc2Oc2ccccc21)C(C)C [Propantheline, propantheline, reference compound]

>  <number>
1.84

$$$$
>  <molecule>
CCC(C)n1ncn(-c2ccc(N3CCN(c4ccc(OCC5COC(Cn6c[n+](C)cn6)(c6ccc(Cl)cc6Cl)O5)cc4)CC3)cc2)c1=O.[Cl-] (stereo not drawn) [Compound 1]

>  <number>
0.36

$$$$

---

Listed below: Remaining Percentages (%) values for each entry.
Assay: Compound stability test in mouse blood
Assay type: in vitro ADME
Details: mouse blood, 37° C., 1 μM, 180 min
parameter: Remaining Percentages (%)

>  <compound>
CCOC(=O)OC[n+]1cnn(CC2(c3ccc(Cl)cc3Cl)OCC(COc3ccc(N4CCN(c5ccc(-n6cnn(C(C)CC)c6=O)cc5)CC4)cc3)O2)c1.[Cl-] (stereo not drawn)

>  <number>
0.232

$$$$
>  <compound>
CC(C)[N+](C)(CCOC(=O)C1c2ccccc2Oc2ccccc21)C(C)C [Propantheline, propantheline, reference compound]

>  <number>
4.44

$$$$
>  <compound>
CCC(C)n1ncn(-c2ccc(N3CCN(c4ccc(OCC5COC(Cn6c[n+](C)cn6)(c6ccc(Cl)cc6Cl)O5)cc4)CC3)cc2)c1=O.[Cl-] (stereo not drawn)

>  <number>
0.00

$$$$
>  <compound>
CCC(C)n1ncn(-c2ccc(N3CCN(c4ccc(OCC5COC(Cn6c[n+](COC(C)=O)cn6)(c6ccc(Cl)cc6Cl)O5)cc4)CC3)cc2)c1=O.[Cl-] (stereo not drawn)

>  <number>
12.0

$$$$
>  <compound>
CCC(C)n1ncn(-c2ccc(N3CCN(c4ccc(OCC5COC(Cn6c[n+](CC)cn6)(c6ccc(Cl)cc6Cl)O5)cc4)CC3)cc2)c1=O.[Cl-] (stereo not drawn)

>  <number>
0.00

$$$$
>  <compound>
CCC(C)n1ncn(-c2ccc(N3CCN(c4ccc(OCC5COC(Cn6c[n+](COC(=O)OC(C)C)cn6)(c6ccc(Cl)cc6Cl)O5)cc4)CC3)cc2)c1=O.[Cl-] (stereo not drawn)

>  <number>
1.03

$$$$

---

Test: Compound stability test in human blood
Type: in vitro ADME
Conditions: human blood, 37° C., 1 μM, 120 min

>  <compound>
CCC(C)n1ncn(-c2ccc(N3CCN(c4ccc(OCC5COC(Cn6c[n+](COC(=O)C(C)C)cn6)(c6ccc(Cl)cc6Cl)O5)cc4)CC3)cc2)c1=O.[Cl-] (stereo not drawn)

>  <Remaining Percentages (%)>
BLOD

$$$$
>  <compound>
CCC(C)n1ncn(-c2ccc(N3CCN(c4ccc(OCC5COC(Cn6c[n+](COC(=O)OC(C)C)cn6)(c6ccc(Cl)cc6Cl)O5)cc4)CC3)cc2)c1=O.[Cl-] (stereo not drawn)

>  <Remaining Percentages (%)>
BLOD

$$$$
>  <compound>
CCCOC(=O)OC[n+]1cnn(CC2(c3ccc(Cl)cc3Cl)OCC(COc3ccc(N4CCN(c5ccc(-n6cnn(C(C)CC)c6=O)cc5)CC4)cc3)O2)c1.[Cl-] (stereo not drawn)

>  <Remaining Percentages (%)>
BLOD

$$$$

---

Assay: Compound stability test in mouse blood
Assay type: in vitro ADME
Settings: mouse blood, 37° C., 1 μM, 60 min

>  <compound>
CCC(C)n1ncn(-c2ccc(N3CCN(c4ccc(OCC5COC(Cn6c[n+](COC(=O)C(C)C)cn6)(c6ccc(Cl)cc6Cl)O5)cc4)CC3)cc2)c1=O.[Cl-] (stereo not drawn)

>  <Remaining Percentages (%)>
BLOD

$$$$
>  <compound>
CCCOC(=O)OC[n+]1cnn(CC2(c3ccc(Cl)cc3Cl)OCC(COc3ccc(N4CCN(c5ccc(-n6cnn(C(C)CC)c6=O)cc5)CC4)cc3)O2)c1.[Cl-] (stereo not drawn)

>  <Remaining Percentages (%)>
BLOD

$$$$
>  <compound>
CCC(C)n1ncn(-c2ccc(N3CCN(c4ccc(OCC5COC(Cn6c[n+](COC(=O)C(C)(C)C)cn6)(c6ccc(Cl)cc6Cl)O5)cc4)CC3)cc2)c1=O.[Cl-] (stereo not drawn)

>  <Remaining Percentages (%)>
BLOD

$$$$

---

Assay: Compound stability test in mouse blood
Format: in vitro ADME
Details: mouse blood, 37° C., 1 μM, 180 min
Experimental: One (1) mM test compound working solution was prepared in DMSO. One (1) mM propantheline working solution was prepared in acetonitrile, wherein propantheline was used as positive control in this assay. […] Samples were analyzed by LC-MS/MS. […] All calculations were carried out using Microsoft Excel. Peak area ratios were determined from extracted ion chromatograms, and percent compounds remaining at each time point were calculated by the following equation: […]

>  <compound>
CCC(C)n1ncn(-c2ccc(N3CCN(c4ccc(OCC5COC(Cn6c[n+](COC(=O)C(C)C)cn6)(c6ccc(Cl)cc6Cl)O5)cc4)CC3)cc2)c1=O.[Cl-] (stereo not drawn) [Compound 4]

>  <Remaining Percentages (%)>
BLOD

$$$$
>  <compound>
CCC(C)n1ncn(-c2ccc(N3CCN(c4ccc(OCC5COC(Cn6c[n+](COC(=O)C(C)(C)C)cn6)(c6ccc(Cl)cc6Cl)O5)cc4)CC3)cc2)c1=O.[Cl-] (stereo not drawn) [Compound 5]

>  <Remaining Percentages (%)>
BLOD

$$$$
>  <compound>
CCCOC(=O)OC[n+]1cnn(CC2(c3ccc(Cl)cc3Cl)OCC(COc3ccc(N4CCN(c5ccc(-n6cnn(C(C)CC)c6=O)cc5)CC4)cc3)O2)c1.[Cl-] (stereo not drawn) [Compound 7]

>  <Remaining Percentages (%)>
BLOD

$$$$
